From: patent US8143263B2

Molecular target: recombinant human pancreatic GLK (Homo sapiens, UniProt P35557)
Sequence (P35557 whole entry): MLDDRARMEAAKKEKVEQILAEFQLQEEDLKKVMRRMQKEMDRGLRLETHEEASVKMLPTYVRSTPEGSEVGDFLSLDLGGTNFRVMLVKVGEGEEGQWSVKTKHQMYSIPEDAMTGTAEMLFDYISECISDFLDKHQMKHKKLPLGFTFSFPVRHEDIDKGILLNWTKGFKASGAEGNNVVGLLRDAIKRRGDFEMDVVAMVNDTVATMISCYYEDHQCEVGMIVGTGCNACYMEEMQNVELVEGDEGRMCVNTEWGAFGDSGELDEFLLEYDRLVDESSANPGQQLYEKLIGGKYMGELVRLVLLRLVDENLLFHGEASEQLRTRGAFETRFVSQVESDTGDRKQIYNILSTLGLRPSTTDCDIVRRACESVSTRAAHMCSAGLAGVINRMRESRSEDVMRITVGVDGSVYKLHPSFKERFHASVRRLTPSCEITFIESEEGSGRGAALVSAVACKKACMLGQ
Assay: biochemical
pEC50: −log10 of the molar value.
Reported pEC50 values are given for each entry in this list.
MEASUREMENT LABEL: pEC50

• Cc1ccc(NC(=O)[C@H](COCCO)Oc2ncnc3c2cnn3-c2c(Cl)cccc2C#N)nc1 = 6.42
• O=C(Nc1ccccn1)[C@H](COCCO)Oc1ncnc2c1cnn2-c1ccccc1Cl = 6.19
• O=C(Nc1ccc(Cl)cn1)[C@H](COCCO)Oc1ncnc2c1cnn2-c1ncccc1Cl = 6.24
• O=C(Nc1ccccn1)[C@H](CN1CC(O)C1)Oc1ncnc2c1cnn2-c1ncccc1Cl = 6.46
• N#Cc1ccc(NC(=O)[C@H](COCCO)Oc2ncnc3c2cnn3-c2cccc(Cl)c2Cl)nc1 = 6.08
• O=C(Nc1ccc(Cl)cn1)[C@H](CN1CC(O)C1)Oc1ncnc2c1cnn2-c1ccccc1Cl = 6.89
• CCOC[C@H](Oc1ncnc2c1cnn2-c1ccccc1Cl)C(=O)Nc1cnc(C)cn1 = 6.29
• Cc1ccc(NC(=O)[C@H](CN2CC(O)C2)Oc2ncnc3c2cnn3-c2ccccc2Cl)nc1 = 6.62
• COCC[C@H](Oc1ncnc2c1cnn2-c1ccc(F)cc1F)C(=O)Nc1ccc(C)cn1 = 6.00
• Cc1ccc(F)cc1-n1ncc2c(O[C@@H](COCCO)C(=O)Nc3ccc(Cl)cn3)ncnc21 = 6.03
• Cc1ccc(NC(=O)C(Oc2ncnc3c2cnn3-c2ccccc2Cl)C(C)C)nc1 (stereo not shown) = 6.06
• COC[C@H](Oc1ncnc2c1cnn2-c1ccccc1OC)C(=O)Nc1ccc(C)cn1 = 6.17
• CCOC[C@H](Oc1ncnc2c1cnn2-c1ncccc1Cl)C(=O)Nc1ccc(C(=O)N(C)C)cn1 = 5.11
• COCCC(Oc1ncnc2c1cnn2-c1cccc(OC)c1)C(=O)Nc1ccc(C)cn1 (stereo not shown) = 5.85
• CCOC(Sc1ncnc2c1cnn2-c1ccccc1OC)C(=O)Nc1nc(C)cs1 (stereo not shown) = 5.80

* * *

Target: recombinant human pancreatic GLK (Homo sapiens)
Test: biochemical
pEC50: −log10 of the molar value.
Reported pEC50 values are given for each entry in this list.
MEASUREMENT LABEL: pEC50

* Cc1c(C#N)cccc1-n1ncc2c(O[C@@H](COCCO)C(=O)Nc3ccc(Cl)cn3)ncnc21 | 5.82
* COCC[C@H](Oc1ncnc2c1cnn2-c1ccccc1C)C(=O)Nc1ccc(C)cn1 | 7.19
* O=C(Nc1ccc(Cl)cn1)[C@H](CCO)Oc1ncnc2c1cnn2-c1ncccc1Cl [Example 143b] | 6.59
* Cc1ccc(NC(=O)[C@H](COC(C)C)Oc2ncnc3c2cnn3-c2ccccc2S(C)(=O)=O)nc1 | 5.89
* Cc1ccc(NC(=O)[C@H](CCN(C)C)Oc2ncnc3c2cnn3-c2ccccc2Cl)nc1 | 6.00
* Cc1c(F)cccc1-n1ncc2c(O[C@@H](COCCO)C(=O)Nc3ccc(Cl)cn3)ncnc21 | 5.82
* N#Cc1ccc(NC(=O)[C@H](CN2CC(O)C2)Oc2ncnc3c2cnn3-c2c(Cl)cccc2Cl)nc1 | 6.68
* Cc1c(Cl)cccc1-n1ncc2c(O[C@@H](COCCO)C(=O)Nc3ccc(C#N)cn3)ncnc21 | 5.54

* * *

Target: recombinant human pancreatic GLK (Homo sapiens)
Assay: biochemical
pEC50: −log10 of the molar value.
MEASUREMENT LABEL: pEC50

• O=C(Nc1ccc(F)cn1)[C@H](CN1CC(O)C1)Oc1ncnc2c1cnn2-c1ncccc1Cl [Example 243] = 6.24
• COCC[C@H](Oc1ncnc2c1cnn2-c1ccccc1OC)C(=O)Nc1ccc(C)cn1 [Example 24] = 6.92
• N#Cc1cccc(Cl)c1-n1ncc2c(O[C@@H](CN3CC(O)C3)C(=O)Nc3ccc(F)cn3)ncnc21 [Example 242] = 6.66
• C[C@H](CO)OC[C@H](Oc1ncnc2c1cnn2-c1c(C#N)cccc1C#N)C(=O)Nc1ccc(Cl)cn1 [Example 236] = 6.13
• CCOC[C@H](Oc1ncnc2c1cnn2-c1ccccc1S(C)(=O)=O)C(=O)Nc1ccc(Cl)cn1 [Example 130] = 5.96
• N#Cc1cccc(Cl)c1-n1ncc2c(O[C@@H](CN3CCC3)C(=O)Nc3ccccn3)ncnc21 [Example 221] = 6.51
• Cc1ccc(NC(=O)[C@H](COC(C)C)Oc2ncnc3c2cnn3-c2ccccc2Cl)nc1 [Example 98] = 6.96
• COCCC(Oc1ncnc2c1cnn2-c1ccccc1Cl)C(=O)Nc1ccc(C)cn1 (centres unmarked) [Example 19] = 7.02
• Cc1ccccc1-n1nnc2c(O[C@@H](COCCO)C(=O)Nc3ccc(Cl)cn3)ncnc21 [Example 198] = 5.66
• O=C(Nc1ccc(Cl)cn1)[C@H](CN1CC(O)C1)Oc1ncnc2c1cnn2-c1ncccc1Cl [Example 165] = 6.43
• Cc1ccc(NC(=O)[C@H](COC(C)C)Oc2ncnc3c2cnn3-c2cccnc2C)nc1 [Example 146] = 6.02
• N#Cc1ccc(NC(=O)[C@H](CN2CC(O)C2)Oc2ncnc3c2cnn3-c2c(Cl)cccc2C#N)nc1 [Example 224] = 6.29
• CC(=O)NCC(Oc1ncnc2c1cnn2-c1ccccc1Cl)C(=O)Nc1nc(C)cs1 (centres unmarked) [Example 48] = 4.96
• CC(=O)OCC[C@H](Oc1ncnc2c1cnn2-c1ncccc1Cl)C(=O)Nc1ccc(C)cn1 [Example 159] = 6.07
• COCCOCCC(Sc1ncnc2c1cnn2-c1ccccc1Cl)C(=O)Nc1nc(C)cs1 (centres unmarked) [Example 52] = 5.54
• CCOC[C@H](Oc1ncnc2c1cnn2-c1ccncc1C)C(=O)Nc1ccc(Cl)cn1 [Example 128] = 6.04
• O=C(Nc1ccc(Cl)cn1)[C@H](CCCO)Oc1ncnc2c1cnn2-c1ncccc1Cl [Example 212] = 6.31
• Cc1ccc(NC(=O)[C@H](CO[C@H](C)CO)Oc2ncnc3c2cnn3-c2ncccc2Cl)nc1 [Example 232] = 6.27
• Cc1cnc(NC(=O)[C@H](COC2CCC2)Oc2ncnc3c2cnn3-c2ccccc2S(C)(=O)=O)cn1 [Example 140] = 5.92
• COCC(Sc1ncnc2c1cnn2-c1ccccc1Cl)C(=O)Nc1ccc(C)cn1 (centres unmarked) [Example 62] = 4.92
• N#Cc1ccc(NC(=O)[C@H](CCCO)Oc2ncnc3c2cnn3-c2ncccc2Cl)nc1 [Example 213] = 5.96
• Cc1ccc(NC(=O)[C@H](COCCO)Oc2ncnc3c2cnn3-c2cccc(Cl)c2C)nc1 [Example 167] = 5.96
• Cc1cnc(NC(=O)[C@H](CN2CC(O)C2)Oc2ncnc3c2cnn3-c2ccccc2Cl)cn1 [Example 219] = 6.55
• Cc1ccc(NC(=O)[C@H](CO[C@H](C)CO)Oc2ncnc3c2cnn3-c2c(Cl)cccc2C#N)nc1 [Example 175] = 6.57
• COCC(Oc1ncnc2c1cnn2-c1ccccc1Cl)C(=O)Nc1ccc(C)cn1 (centres unmarked) [Example 1] = 6.21
• Cc1ccc(C)c(-n2ncc3c(O[C@@H](COCCO)C(=O)Nc4ccc(Cl)cn4)ncnc32)c1 [Example 179] = 6.21
• Cc1cnc(NC(=O)[C@H](COC(C)C)Oc2ncnc3c2cnn3-c2ccccc2Cl)s1 [Example 111a] = 6.68

* * *

Target: recombinant human pancreatic GLK (Homo sapiens)
Experiment: biochemical
pEC50: −log10 of the molar value.
MEASUREMENT LABEL: pEC50

- CC(C)OCC(Oc1ncnc2c1cnn2-c1ccccc1Cl)C(=O)Nc1ccccn1 (stereo not drawn) [Example 118]: 6.82
- CCCCCCC(Sc1ncnc2c1cnn2-c1ccccc1Cl)C(=O)Nc1ccon1 (stereo not drawn) [Example 64]: 5.00
- Cc1ccc(NC(=O)[C@H](CCCO)Oc2ncnc3c2cnn3-c2ncccc2Cl)nc1 [Example 131]: 6.39
- Cc1cnc(NC(=O)[C@H](COC2CCC2)Oc2ncnc3c2cnn3-c2cnccc2C)cn1 [Example 188]: 5.96
- Cc1ccc(NC(=O)[C@H](COC(C)C)Oc2ncnc3c2cnn3-c2ncccc2Cl)nn1 [Example 127]: 5.22
- C[C@H](CO)OC[C@H](Oc1ncnc2c1cnn2-c1ccccc1Cl)C(=O)Nc1ccc(F)cn1 [Example 245]: 6.33
- Cc1c(C#N)cccc1-n1ncc2c(O[C@@H](COCCO)C(=O)Nc3ccc(C#N)cn3)ncnc21 [Example 207]: 5.30
- Cc1cccnc1-n1ncc2c(O[C@@H](COC(C)C)C(=O)Nc3ccc(Cl)cn3)ncnc21 [Example 127b]: 6.08
- COC[C@H](Oc1ncnc2c1cnn2-c1ncccc1Cl)C(=O)Nc1ccc(C)cn1 [Example 89]: 5.82
- COCC(Oc1ncnc2c1cnn2-c1ccc(Cl)cc1Cl)C(=O)Nc1ccc(C)cn1 (stereo not drawn) [Example 7]: 5.43
- Cc1ccc(NC(=O)[C@H](COC2CCC2)Oc2ncnc3c2cnn3-c2nccnc2C)nc1 [Example 144]: 6.29
- COc1ccccc1-n1ncc2c(OC(CCS(C)(=O)=O)C(=O)Nc3ccc(C)cn3)ncnc21 (stereo not drawn) [Example 10]: 5.57
- O=C(Nc1ccc(F)cn1)[C@H](COCCO)Oc1ncnc2c1cnn2-c1c(F)cccc1Cl [Example 244]: 6.48
- O=C(Nc1ccc(F)cn1)[C@H](COCCO)Oc1ncnc2c1cnn2-c1ccccc1Cl [Example 248]: 6.19
- CC(C)OC[C@H](Oc1ncnc2c1cnn2-c1ccccc1Cl)C(=O)Nc1ccc(F)cn1 [Example 112a]: 6.66
- CCOC[C@H](Oc1ncnc2c1nnn2-c1ccccc1Cl)C(=O)Nc1ccc(C#N)cn1 [Example 197]: 6.22
- CNC(=O)CCC(Oc1ncnc2c1cnn2-c1ccccc1Cl)C(=O)Nc1ccc(C)cn1 (stereo not drawn) [Example 51]: 5.36
- Cc1ccc(NC(=O)[C@H](COC(C)C)Oc2ncnc3c2cnn3-c2ccncc2C)nc1 [Example 135]: 5.23
- N#Cc1cccc(Cl)c1-n1ncc2c(O[C@@H](COCCO)C(=O)Nc3ccc(Cl)cn3)ncnc21 [Example 174]: 6.64
- COCCC(Oc1ncnc2c1cnn2-c1ccccc1C)C(=O)Nc1ccc(C)cn1 (stereo not drawn) [Example 16]: 6.54
- Cc1ccc(NC(=O)C(CCC(=O)O)Oc2ncnc3c2cnn3-c2ccccc2Cl)nc1 (stereo not drawn) [Example 49]: 4.47
- Cc1ccc(NC(=O)[C@H](COC2CCC2)Oc2ncnc3c2cnn3-c2ncccc2Cl)nc1 [Example 158]: 6.82
- CC[C@@H](Oc1ncnc2c1cnn2-c1ccccc1OC)C(=O)Nc1ccc(C)cn1 [Example 43]: 5.38
- COCC[C@@H](Oc1ncnc2c1cnn2-c1ccccc1Cl)C(=O)Nc1ccc(C)cn1 [Example 20]: 5.03
- CC(C)OCC(Oc1ncnc2c1cnn2-c1ccccc1Cl)C(=O)Nc1ccon1 (stereo not drawn) [Example 119]: 5.92
- CCOC[C@H](Oc1ncnc2c1cnn2-c1ncccc1C(F)(F)F)C(=O)Nc1ccc(Cl)cn1 [Example 134]: 6.36
- COCCC(Oc1ncnc2c1cnn2-c1ccccc1OC)C(=O)Nc1ccc(C)cn1 (stereo not drawn) [Example 22]: 6.72
- CC(C)OCC(Oc1ncnc2c1cnn2-c1ccccc1Cl)C(=O)Nc1ccc(C#N)cn1 (stereo not drawn) [Example 113]: 6.52
- COCC(Oc1ncnc2c1cnn2-c1ccccc1OC)C(=O)Nc1ccc(C)cn1 (stereo not drawn) [Example 4]: 5.47
